src = paper PMC12525849

# protocol-notes: RP HPLC on octadecyl (C-18/RP-18) column, buffer-MeOH pH 7.4, log kw by extrapolation
# Assay type: physicochemical
# stated-conditions: slope of log k vs MeOH content, C18 stationary phase, pH 7.4
attribute-measured: S

| compound | S |
| --- | --- |
| Oc1cc(O)c(-c2nnc(Nc3ccc(F)cc3)s2)cc1Cl [Compound 13] | −4.173 |
| Cc1ccc(Nc2nnc(-c3ccc(O)cc3O)s2)cc1 [Compound 12] | −4.168 |
| Oc1ccc(-c2nnc(Nc3cccc4ccccc34)s2)c(O)c1 [Compound 16] | −3.931 |

---

# protocol-notes: Log D(7.4) determination from RP-18 measurements using a standard curve
# Type: physicochemical
# stated-conditions: C18 (RP-18) HPLC column with MeOH-water mobile phase; calculated from standard curve (Equation 3) and log kw C18, pH 7.4
attribute-measured: chromatographic logD

| molecule | recorded-value |
| --- | --- |
| Oc1ccc(-c2nnc(Nc3cccc4ccccc34)s2)c(O)c1 [Compound 16] | 3.21 |

[1] Oc1ccc(-c2nnc(-c3ccc(O)c(O)c3)s2)c(O)c1 [Compound 7]
[2] Oc1ccc(-c2nnc(-c3ccc(C(F)(F)F)cc3)s2)c(O)c1 [Compound 6]
Q: Sorting ascending by chromatographic logD, which comes first: 1 or 2 ? Selection: enter the item's label.
A: 1

[P] Oc1ccc(-c2nnc(-c3ccccc3Cl)s2)c(O)c1 [Compound 4]
[Q] Oc1cc(O)c(-c2nnc(-c3ccc(OC(F)(F)F)cc3)s2)cc1Cl [Compound 10]
Q: I need your help: which of the pair P , Q has higher chromatographic logD? Selection: enter the item's label.
A: Q
(Q: 4.12, P: 2.69)

[a] COc1cc(-c2nnc(-c3ccc(O)cc3O)s2)ccc1O [Compound 8]
[b] CCc1cc(-c2nnc(Nc3ccc(Cl)cc3)s2)c(O)cc1O [Compound 14]
Q: Sorting ascending by chromatographic logD, which comes first: a or b ? Selection: enter the item's label.
A: a
